testedSystem: Cyclin-dependent kinase-like 1 (Homo sapiens)
Label key: condition met means ΔTm under -0.1 °C; condition not met means ΔTm of -0.1 °C or more.

> print(dat)
                                    compound                              testedsystem         grouplabel
 1          O=c1cc(N2CCOCC2)oc2c1ccc1ccccc12  Cyclin-dependent kinase-like 1 (Homo sapiens)  condition not met
 2          COc1cccc(-c2cc(=O)c3ccccc3o2)c1N  Cyclin-dependent kinase-like 1 (Homo sapiens)  condition not met
 3               Cc1cc2ncc(-c3ccccc3)nc2cc1C  Cyclin-dependent kinase-like 1 (Homo sapiens)      condition met
 4  CCOC(=O)c1c(C)[nH]c(/C=C2\C(=O)Nc3ccccc32)c1C  Cyclin-dependent kinase-like 1 (Homo sapiens)  condition not met
 5  COc1cc2ncnc(Nc3ccc(NC(=O)c4ccccc4)cc3)c2cc1OC  Cyclin-dependent kinase-like 1 (Homo sapiens)  condition not met
 6         COc1cc2ncnc(Nc3cccc(Br)c3)c2cc1OC  Cyclin-dependent kinase-like 1 (Homo sapiens)  condition not met
 7  COc1cc(OC)c(/C=C2\C(=O)Nc3ccccc32)c(OC)c1  Cyclin-dependent kinase-like 1 (Homo sapiens)      condition met
 8   Cc1cc(Nc2nc(-c3ccccc3)nc3ccccc23)n[nH]1  Cyclin-dependent kinase-like 1 (Homo sapiens)  condition not met
 9  O=c1c2ccccc2[nH]c(=S)n1CCN1CCC(=C(c2ccc(F)cc2)c2ccc(F)cc2)CC1  Cyclin-dependent kinase-like 1 (Homo sapiens)      condition met
10     CN1CCc2[nH]c(=S)c(C#N)c(-c3cccs3)c2C1  Cyclin-dependent kinase-like 1 (Homo sapiens)  condition not met

In plain terms, does CN(c1cccnc1)c1cc2c(Nc3ccc(F)c(Cl)c3)c(C#N)cnc2cn1 come in under -0.1 °C for ΔTm?
condition not met

Please determine if OC[C@H]1O[C@@H](n2cnc3cc(Cl)c(Cl)cc32)[C@H](O)[C@@H]1O is below -0.1 °C in terms of ΔTm.
condition met

Say whether its ΔTm is strictly beneath -0.1 °C. Entry: Cc1[nH]c(/C=C2\C(=O)Nc3ccc(S(=O)(=O)N(C)c4cccc(Cl)c4)cc32)c(C)c1C(=O)N1CCN(C)CC1
condition met

Regarding Oc1cccc(-c2nc(N3CCOCC3)c3oc4ncccc4c3n2)c1 , kindly confirm whether its ΔTm is beneath -0.1 °C.
condition met

State whether -0.1 °C exceeds ΔTm recorded for C#Cc1cccc(Nc2ncnc3cc(OCCOC)c(OCCOC)cc23)c1 .
condition not met

Please let me know if O=C1NC(=O)c2c1c1c3ccccc3n3c1c1c2c2ccccc2n1C1CCC3O1 shows ΔTm below -0.1 °C.
condition met

State whether -0.1 °C exceeds ΔTm recorded for N#C/C(=C\c1ccc(O)c(O)c1)C(=O)NCc1ccccc1 .
condition met

Problem: For the compound CN(C)c1ncnc2nc[nH]c12 , is ΔTm under -0.1 °C?
condition not met

API: query returns whether the compound falls strictly under -0.1 °C in ΔTm. Query: CN(C)CC1CCn2c(c(C3=C(c4c[nH]c5ccccc45)C(=O)NC3=O)c3ccccc32)C1 (stereo not given)
condition not met

* * *

Quick record of ΔTm values for STE20-like serine/threonine-protein kinase (Homo sapiens).
Answers are plain numbers, in °C.

Check out these entries, answers already filled in.
> print(dat)
                               samplesmiles                              testedsystem  quantitykind  resultvalue
1  Nc1n[nH]c2nnc(-c3c(-c4ccccc4)nn4ccccc34)cc12  STE20-like serine/threonine-protein kinase (Homo sapiens)           ΔTm          0.7
2  CC(=O)O/N=C1/C(=C2/C(=O)Nc3cc(Br)ccc32)Nc2ccccc21  STE20-like serine/threonine-protein kinase (Homo sapiens)           ΔTm          2.1
3         O=c1sn(Cc2ccccc2)c(=S)n1Cc1ccccc1  STE20-like serine/threonine-protein kinase (Homo sapiens)           ΔTm          0.4
4  CN(C)C[C@@H]1CCn2cc(c3ccccc32)C2=C(C(=O)NC2=O)c2cn(c3ccccc23)CCO1  STE20-like serine/threonine-protein kinase (Homo sapiens)           ΔTm            7

Then this compound:
ΔTm reported for this compound O=C1Nc2ccc(I)cc2/C1=C1/Nc2ccccc2/C1=N\O : 3.7

* * *

testedSystem: Platelet-derived growth factor receptor beta (Homo sapiens)
Sequence (P09619 whole entry): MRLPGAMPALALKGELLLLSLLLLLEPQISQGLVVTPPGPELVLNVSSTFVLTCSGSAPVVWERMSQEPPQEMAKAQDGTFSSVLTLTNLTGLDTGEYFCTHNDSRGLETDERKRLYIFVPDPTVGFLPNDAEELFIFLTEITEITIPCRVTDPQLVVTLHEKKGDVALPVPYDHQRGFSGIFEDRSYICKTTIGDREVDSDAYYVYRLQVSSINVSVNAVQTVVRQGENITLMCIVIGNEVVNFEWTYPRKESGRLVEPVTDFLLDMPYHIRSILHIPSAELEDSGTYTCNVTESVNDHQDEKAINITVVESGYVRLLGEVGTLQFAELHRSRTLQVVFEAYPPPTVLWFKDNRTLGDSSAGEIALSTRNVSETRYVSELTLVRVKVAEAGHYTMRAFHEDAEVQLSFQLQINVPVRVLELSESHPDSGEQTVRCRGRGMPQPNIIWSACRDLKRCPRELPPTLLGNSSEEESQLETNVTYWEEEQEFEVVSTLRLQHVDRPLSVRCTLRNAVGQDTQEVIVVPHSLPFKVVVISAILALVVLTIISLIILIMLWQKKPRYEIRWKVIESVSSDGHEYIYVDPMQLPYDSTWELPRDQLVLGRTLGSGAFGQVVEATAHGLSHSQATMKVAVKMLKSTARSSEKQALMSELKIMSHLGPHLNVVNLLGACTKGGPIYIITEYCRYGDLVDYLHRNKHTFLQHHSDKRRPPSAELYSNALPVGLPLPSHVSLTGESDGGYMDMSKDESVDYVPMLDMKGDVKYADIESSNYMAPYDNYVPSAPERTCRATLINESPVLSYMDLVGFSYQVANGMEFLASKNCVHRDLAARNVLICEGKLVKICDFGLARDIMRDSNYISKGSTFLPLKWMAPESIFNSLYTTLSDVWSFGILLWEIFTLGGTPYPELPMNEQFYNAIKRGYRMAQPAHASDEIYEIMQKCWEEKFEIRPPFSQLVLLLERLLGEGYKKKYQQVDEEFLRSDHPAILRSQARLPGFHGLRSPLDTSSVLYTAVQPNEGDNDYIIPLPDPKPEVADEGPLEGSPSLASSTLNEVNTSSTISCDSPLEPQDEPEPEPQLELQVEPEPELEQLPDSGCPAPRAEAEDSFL
protocolNotes: Inhibition of bPDGFR in human PAC1 cells
Format: cell-based
quantityKind: IC50
The number alone won't do; follow it with the unit.

For reference, reported IC50 for CCOC(=O)c1c(C)[nH]c(/C=C2\C(=O)Nc3ccccc32)c1C stands at 4 µM

* * *

Measured ΔTm on Cyclin-dependent kinase 16 (Homo sapiens) (UniProt Q00536) follows.
Sequence (Q00536 whole entry): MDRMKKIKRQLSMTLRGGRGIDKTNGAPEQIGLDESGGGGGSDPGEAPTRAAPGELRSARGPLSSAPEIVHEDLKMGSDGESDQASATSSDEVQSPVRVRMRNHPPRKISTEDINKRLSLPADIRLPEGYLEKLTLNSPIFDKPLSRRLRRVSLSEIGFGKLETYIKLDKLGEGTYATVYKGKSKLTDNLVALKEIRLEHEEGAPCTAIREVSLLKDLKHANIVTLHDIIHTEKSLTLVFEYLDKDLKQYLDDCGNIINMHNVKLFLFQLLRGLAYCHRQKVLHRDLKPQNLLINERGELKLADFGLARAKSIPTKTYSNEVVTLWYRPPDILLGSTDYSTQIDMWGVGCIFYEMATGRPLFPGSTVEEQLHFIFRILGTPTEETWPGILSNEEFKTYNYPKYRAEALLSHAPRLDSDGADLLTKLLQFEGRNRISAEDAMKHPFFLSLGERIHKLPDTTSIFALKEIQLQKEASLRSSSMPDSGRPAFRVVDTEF
One number for each entry, in °C.

The following molecules have reported results that may help.
> print(dat)
                               samplesmiles                              testedsystem  quantitykind  resultvalue
1   N#C/C(=C\c1ccc(O)c(O)c1)C(=O)NCc1ccccc1  Cyclin-dependent kinase 16 (Homo sapiens) (UniProt Q00536)           ΔTm         -0.6
2  Nc1n[nH]c2nnc(-c3c(-c4ccccc4)nn4ccccc34)cc12  Cyclin-dependent kinase 16 (Homo sapiens) (UniProt Q00536)           ΔTm          0.2
3  O=Nc1c(-c2c(O)[nH]c3ccccc23)[nH]c2ccccc12  Cyclin-dependent kinase 16 (Homo sapiens) (UniProt Q00536)           ΔTm          3.2
4  Oc1cccc(-c2nc(N3CCOCC3)c3oc4ncccc4c3n2)c1  Cyclin-dependent kinase 16 (Homo sapiens) (UniProt Q00536)           ΔTm         -0.1
5  CC(C)(C)n1nc(-c2cccc3ccccc23)c2c(N)ncnc21  Cyclin-dependent kinase 16 (Homo sapiens) (UniProt Q00536)           ΔTm         -0.4

Moving on to the next molecule.
Please fill in: ΔTm reported for Cn1cc(C2=C(c3cn(CCCSC(=N)N)c4ccccc34)C(=O)NC2=O)c2ccccc21 = 5.3

* * *

Here's what we have: ΔTm numbers for Calcium/calmodulin-dependent protein kinase type II subunit beta (Homo sapiens).
Numbers only, in °C.

> print(dat)
                                   compound  readingunit  resultvalue
1  CN(C)CCCn1cc(C2=C(c3c[nH]c4ccccc34)C(=O)NC2=O)c2ccccc21 [GF-109203]           °C          0.9
2  O=C1NC(=O)C(c2cn(CCCn3ccnc3)c3ccccc23)=C1Nc1ccccc1           °C          0.7
3  O=C(Nc1cccc(Nc2nccc(Nc3cccc(C(F)(F)F)c3)n2)c1)C1CC1 [ANILINOPYRIMIDINE1]           °C            1
4  CC(C)n1cnc2/c(=N/c3cccc(Cl)c3)nc(NCCO)[nH]c21           °C          0.4
5   O=C1Nc2ccc(I)cc2/C1=C1/Nc2ccccc2/C1=N\O           °C          1.2

For the 7 compounds below, give their ΔTm values.
1. O=c1c(-c2ccc(F)cc2)c(-c2ccncc2)[nH]n1-c1ccc(Cl)cc1
2. Nc1ncnc2c1c(I)cn2[C@@H]1O[C@H](CO)[C@@H](O)[C@H]1O
3. O=C(O)c1cc(N(Cc2ccccc2O)Cc2cc(O)ccc2O)ccc1O [LAVENDUSTIN A]
4. N#C/C(=C\c1ccc(O)c(O)c1)C(=O)NCc1ccccc1
5. O=c1sn(Cc2ccccc2)c(=S)n1Cc1ccccc1
6. Brc1c(Br)c(Br)c2[nH]nnc2c1Br [TETRABROMOBENZOTRIAZOLE]
7. CCOC(=O)c1cnc2oc3ccc(O)cc3c2c1-c1ccccc1

0
0.4
-0.1
0.2
1
1.2
0.4

Batch of 5 compounds: report ΔTm for each.
1. CN(C)c1ncnc2nc[nH]c12 [DIMETHYLADENINE]
2. CN1CCc2[nH]c(=S)c(C#N)c(-c3cccs3)c2C1
3. Nc1nccc(-c2c(-c3ccc(F)cc3)ncn2C2CCNCC2)n1
4. CC[C@H](CO)Nc1nc(NCc2ccccc2)c2ncn(C(C)C)c2n1 [SELICICLIB]
5. O=c1c2ccccc2[nH]c(=S)n1CCN1CCC(=C(c2ccc(F)cc2)c2ccc(F)cc2)CC1 [DIACYLGLYCEROL KINASE INHIBITOR II]

1. 0
2. -0.2
3. -0.2
4. 0.3
5. -1

* * *

testedSystem: Serine/threonine-protein kinase PAK 5 (Homo sapiens) (UniProt Q9P286)
Sequence (Q9P286 whole entry, looked up): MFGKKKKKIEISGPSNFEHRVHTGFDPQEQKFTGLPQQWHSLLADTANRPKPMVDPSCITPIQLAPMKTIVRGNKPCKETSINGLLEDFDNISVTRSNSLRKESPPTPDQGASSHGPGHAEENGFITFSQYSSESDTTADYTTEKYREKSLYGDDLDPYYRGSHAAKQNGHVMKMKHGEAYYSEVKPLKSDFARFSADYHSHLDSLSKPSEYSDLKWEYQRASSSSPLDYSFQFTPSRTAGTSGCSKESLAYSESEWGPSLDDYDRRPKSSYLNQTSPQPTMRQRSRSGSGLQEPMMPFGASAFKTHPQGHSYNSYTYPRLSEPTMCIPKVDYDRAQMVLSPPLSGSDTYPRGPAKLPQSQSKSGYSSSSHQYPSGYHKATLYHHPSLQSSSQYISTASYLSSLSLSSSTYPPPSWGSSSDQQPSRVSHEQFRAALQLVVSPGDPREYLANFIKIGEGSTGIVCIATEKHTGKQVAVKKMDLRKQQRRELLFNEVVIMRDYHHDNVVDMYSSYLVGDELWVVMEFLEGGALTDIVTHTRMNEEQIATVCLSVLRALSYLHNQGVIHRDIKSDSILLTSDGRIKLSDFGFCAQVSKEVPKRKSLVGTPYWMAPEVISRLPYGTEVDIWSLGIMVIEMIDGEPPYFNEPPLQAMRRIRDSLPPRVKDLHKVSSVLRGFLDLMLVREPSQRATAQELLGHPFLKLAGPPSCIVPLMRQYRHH
quantityKind: ΔTm (°C)
Give bare numbers, in °C.

> print(dat)
                                   molecule  resultvalue
1  CC(C)(C)c1cc(C=C2C(=O)C=CC2=O)cc(C(C)(C)C)c1O          0.2

Items follow; give ΔTm for each.
1. O=C(Nc1cccc(Nc2cc(Nc3cccc(C(F)(F)F)c3)ncn2)c1)C1CC1
2. O=c1cc(N2CCOCC2)oc2c1ccc1ccccc12
3. CN(c1cccnc1)c1cc2c(Nc3ccc(F)c(Cl)c3)c(C#N)cnc2cn1
4. COc1ccc(COc2ccc(Cc3cnc(N)nc3N)cc2OC)cc1
5. O=c1c2ccccc2[nH]c(=S)n1CCN1CCC(=C(c2ccc(F)cc2)c2ccc(F)cc2)CC1 [DIACYLGLYCEROL KINASE INHIBITOR II]
6. O=C1Nc2ccccc2/C1=C1/Nc2ccccc2/C1=N\O

[1, 0, 1, -0.2, -0.2, 3.3]
